Target: T1, human IL-36R (human, UniProt Q9HB29 20-575)
T1 sequence (looked up): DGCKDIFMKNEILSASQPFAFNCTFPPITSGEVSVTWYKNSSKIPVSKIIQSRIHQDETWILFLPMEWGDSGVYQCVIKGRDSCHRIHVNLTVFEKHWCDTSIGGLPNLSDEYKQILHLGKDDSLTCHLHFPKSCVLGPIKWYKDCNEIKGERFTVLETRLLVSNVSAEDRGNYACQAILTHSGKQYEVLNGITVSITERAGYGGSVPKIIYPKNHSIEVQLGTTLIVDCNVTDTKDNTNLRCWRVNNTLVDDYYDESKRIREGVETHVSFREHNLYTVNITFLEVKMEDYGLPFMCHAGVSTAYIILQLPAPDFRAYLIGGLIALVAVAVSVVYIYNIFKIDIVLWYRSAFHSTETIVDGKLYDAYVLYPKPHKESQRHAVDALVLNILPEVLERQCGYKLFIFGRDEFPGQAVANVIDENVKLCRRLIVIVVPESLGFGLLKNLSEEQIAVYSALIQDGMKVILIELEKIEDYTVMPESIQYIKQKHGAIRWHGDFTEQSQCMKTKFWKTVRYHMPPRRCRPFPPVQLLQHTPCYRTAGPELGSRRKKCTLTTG
Test: cell-based or functional assay
This listing pairs binders with measured IC50 of IL-8 release, NCI/ADR-RES cells stimulated with IL-36γ.
Give the quantity in mg/L, number only.

// worked examples, IC50 of IL-8 release, NCI/ADR-RES cells stimulated with IL-36γ included
BINDER: humanized anti-IL-36R antibody 900534 (antibody, V domains shown, IgG1 (vector with L234A, L235A) and human kappa) VH: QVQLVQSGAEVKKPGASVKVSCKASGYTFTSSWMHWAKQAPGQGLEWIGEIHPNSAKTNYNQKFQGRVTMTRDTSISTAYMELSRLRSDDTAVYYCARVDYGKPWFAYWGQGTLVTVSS VL: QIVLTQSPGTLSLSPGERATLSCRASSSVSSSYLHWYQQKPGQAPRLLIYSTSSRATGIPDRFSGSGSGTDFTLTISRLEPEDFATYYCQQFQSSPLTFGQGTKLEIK
ASSAY_VALUE: 0.018
//
BINDER: humanized anti-IL-36R antibody 900527 (antibody, V domains shown, IgG1 (vector with L234A, L235A) and human kappa) VH: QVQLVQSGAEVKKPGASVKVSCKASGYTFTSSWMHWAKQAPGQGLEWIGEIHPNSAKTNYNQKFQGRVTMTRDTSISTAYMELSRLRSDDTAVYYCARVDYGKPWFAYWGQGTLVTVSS VL: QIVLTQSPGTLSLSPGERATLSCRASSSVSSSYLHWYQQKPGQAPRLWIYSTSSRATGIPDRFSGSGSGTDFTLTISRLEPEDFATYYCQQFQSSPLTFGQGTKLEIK
ASSAY_VALUE: 0.0198
//
BINDER: anti-IL-36R chimeric antibody 900497 (antibody, V domains shown, Human-mouse chimera: human IgG1 heavy constant region with L234A and L235A (Eu numbering), human kappa light constant region) VH: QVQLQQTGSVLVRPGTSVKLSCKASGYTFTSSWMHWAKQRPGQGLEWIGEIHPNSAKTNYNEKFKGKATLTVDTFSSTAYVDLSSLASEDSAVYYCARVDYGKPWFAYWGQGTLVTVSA VL: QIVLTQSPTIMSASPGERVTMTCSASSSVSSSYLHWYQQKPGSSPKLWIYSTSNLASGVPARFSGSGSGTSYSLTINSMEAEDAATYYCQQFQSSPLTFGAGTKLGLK
ASSAY_VALUE: 0.0284

What value of IC50 of IL-8 release, NCI/ADR-RES cells stimulated with IL-36γ has been recorded for this entry: humanized anti-IL-36R antibody 900513 (antibody, V domains shown, IgG1 (vector with L234A, L235A) and human kappa) VH: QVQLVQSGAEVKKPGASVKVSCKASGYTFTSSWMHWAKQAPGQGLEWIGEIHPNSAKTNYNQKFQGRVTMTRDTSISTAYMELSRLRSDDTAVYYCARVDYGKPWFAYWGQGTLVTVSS VL: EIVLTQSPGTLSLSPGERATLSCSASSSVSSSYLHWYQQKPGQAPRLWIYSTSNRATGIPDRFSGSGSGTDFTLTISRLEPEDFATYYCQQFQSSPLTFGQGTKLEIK
0.018
